MEASURED TARGET: Menin/MLL-4-43 peptide interaction (Homo sapiens (Human))
Sequence (O00255 whole entry, species assumed): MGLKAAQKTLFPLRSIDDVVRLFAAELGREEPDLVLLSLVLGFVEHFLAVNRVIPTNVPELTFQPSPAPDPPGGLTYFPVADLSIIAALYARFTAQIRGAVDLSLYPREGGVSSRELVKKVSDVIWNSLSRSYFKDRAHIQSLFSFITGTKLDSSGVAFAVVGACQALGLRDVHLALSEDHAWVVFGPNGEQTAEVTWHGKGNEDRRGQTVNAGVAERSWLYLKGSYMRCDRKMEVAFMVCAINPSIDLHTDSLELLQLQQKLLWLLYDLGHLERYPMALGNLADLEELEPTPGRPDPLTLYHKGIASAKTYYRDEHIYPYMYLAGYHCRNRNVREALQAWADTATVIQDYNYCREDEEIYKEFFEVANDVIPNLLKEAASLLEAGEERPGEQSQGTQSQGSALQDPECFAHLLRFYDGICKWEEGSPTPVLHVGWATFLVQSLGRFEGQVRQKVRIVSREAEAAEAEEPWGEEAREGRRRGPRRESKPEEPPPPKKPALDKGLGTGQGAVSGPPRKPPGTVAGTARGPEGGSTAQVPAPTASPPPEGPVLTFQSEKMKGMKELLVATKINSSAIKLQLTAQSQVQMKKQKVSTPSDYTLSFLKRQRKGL
EXPERIMENT DESCRIPTION: Menin-MLL interaction inhibitory activity assay (fluorescence polarization competition)
RUN PARAMETERS: FITC-MLL4-43-peptide, Menin recombinant protein
PROPERTY LABEL: IC50 (nM)

[1] CCN(C(=O)c1cc(F)ccc1Oc1nncnc1N1CC2(CCN(C[C@H]3CC[C@]4(CC3)C[C@H](COC)C(=O)N4)CC2)C1)C(C)C [Example 37-1]
[2] CC(C)=C1C[C@]2(CC[C@@H](CN3CCC4(CC3)CN(c3ncnnc3Oc3ccc(F)cc3C(=O)N(C(C)C)C(C)C)C4)CC2)NC1=O [Example 61]
Challenge: Between 1 and 2 , which one has the lower reported IC50 value? Field: selected label. Fill in the label of the entry you choose.
Response given: 1
(1: 12.9 nM, 2: 25.5 nM)

###

System: MOLM-13
EXPERIMENT DESCRIPTION: Cell proliferation inhibition (CellTiter-Glo), MOLM-13
Assay type: cell-based
RUN PARAMETERS: Homo sapiens, MOLM-13, 168 h, MOLM-13 cells
PROPERTY LABEL: GI50 (nM)

Recorded results for 2 compounds are shown here.
CC(C)N(C(=O)c1cc(F)ccc1Oc1cncnc1N1CC2(CCN(CC3CC4CCC3CC43CCC(=O)N3)CC2)C1)C(C)C (single isomer, unassigned) ... 63.3
COCC1(COC)C[C@]2(CC[C@@H](CN3CCC4(CC3)CN(c3ncnnc3Oc3ccc(F)cc3C(=O)N(C(C)C)C(C)C)C4)CC2)NC1=O ... 36.1

[1] COCC1(COC)C[C@]2(CC[C@@H](CN3CCC4(CC3)CN(c3ncncc3Oc3ccc(F)cc3C(=O)N(C(C)C)C(C)C)C4)CC2)NC1=O
[2] CCN(C(=O)c1cc(F)ccc1Oc1cncnc1N1CC2(CCN(CC3CC4CCC3CC43COC(=O)N3)CC2)C1)C(C)C (single isomer, unassigned)
Challenge: Please tell me which of the two, 1 or 2 , has the higher reported GI50 value. Field: selected label. Fill in the label of the entry you choose.
Response given: 2

[P] CCN(C(=O)c1cc(F)ccc1Oc1cncnc1N1CC2(CCN(C[C@H]3CC[C@]4(CC3)CC(COC)(COC)C(=O)N4)CC2)C1)C(C)C
[Q] CC(C)N(C(=O)c1cc(F)ccc1Oc1cncnc1N1CC2(CCN(C[C@H]3CC[C@]4(CC3)CC(C)(C)C(=O)N4)CC2)C1)C1CC1
Challenge: Please tell me which of the two, P or Q , has the higher reported GI50 value. Field: selected label. Fill in the label of the entry you choose.
Response given: Q
(Q: 157 nM, P: 7.9 nM)

###

EXPERIMENT DESCRIPTION: Pharmacokinetics test in mouse
Format: in vivo, ICR mice
RUN PARAMETERS: mice, p.o. 10 mg/kg; 1 mg/kg for intravenous injection
PROPERTY LABEL: F, % (%)

CC(C)N(C(=O)c1cc(F)ccc1Oc1nncnc1N1CC2(CCN(CC3CC4CCC3CC43CCC(=O)N3)CC2)C1)C(C)C (single isomer, unassigned) ... 60
CCN(C(=O)c1cc(F)ccc1Oc1cncnc1N1CC2(CCN(C[C@H]3CC[C@]4(CC3)CC(COC)(COC)C(=O)N4)CC2)C1)C(C)C ... 56
COC[C@H]1C[C@]2(CC[C@@H](CN3CCC4(CC3)CN(c3ncnnc3Oc3ccc(F)cc3C(=O)N(C(C)C)C(C)C)C4)CC2)NC1=O ... 67

###

EXPERIMENT DESCRIPTION: Stability in human liver microsomes
Type: in vitro ADME
RUN PARAMETERS: human, liver microsomes, pH 7.4, Human; 0.5 mg/mL microsomal protein, 1.00 μM compound, NADPH; read-out: Half life T1/2, human liver microsomes
PROPERTY LABEL: half-life at 1 μM (min)

Recorded results for 3 molecules are shown here.
CCN(C(=O)c1cc(F)ccc1Oc1nncnc1N1CC2(CCN(C[C@H]3CC[C@@]4(CCC(=O)N4)CC3)CC2)C1)C(C)C [Example 7] ... 77.9
COCC1(COC)C[C@]2(CC[C@@H](CN3CCC4(CC3)CN(c3ncnnc3Oc3ccc(F)cc3C(=O)N(C(C)C)C(C)C)C4)CC2)NC1=O [Example 20] ... 74.9
CCN(C(=O)c1cc(F)ccc1Oc1nncnc1N1CC2(CCN(CC3CCC4(CC3)CN(C)C(=O)N4)CC2)C1)C(C)C (single isomer, unassigned) [Example 46-1] ... 78.5

[1] CCN(C(=O)c1cc(F)ccc1Oc1nncnc1N1CC2(CCN(C[C@H]3CC[C@]4(CC3)C[C@@H](COC)C(=O)N4)CC2)C1)C(C)C [Example 37-2]
[2] CC(C)N(C(=O)c1cc(F)ccc1Oc1cncnc1N1CC2(CCN(C[C@H]3CC[C@]4(CC3)CC(C)(C)C(=O)N4)CC2)C1)C1CC1 [Example 23]
Challenge: Please tell me which of the two, 1 or 2 , has the higher reported half-life at 1 μM value. Field: selected label. Fill in the label of the entry you choose.
Response given: 1
(1: 65.2 min, 2: 36.3 min)

[1] CCN(C(=O)c1cc(F)ccc1Oc1nncnc1N1CC2(CCN(C[C@H]3CC[C@]4(CC3)CC(C(C)(C)O)C(=O)N4)CC2)C1)C(C)C (single isomer, unassigned) [Example 58-1a]
[2] [2H]C([2H])([2H])C1C[C@]2(CC[C@@H](CN3CCC4(CC3)CN(c3ncnnc3Oc3ccc(F)cc3C(=O)N(C(C)C)C(C)C)C4)CC2)NC1=O (single isomer, unassigned) [Example 43-1]
Challenge: Please tell me which of the two, 1 or 2 , has the higher reported half-life at 1 μM value. Field: selected label. Fill in the label of the entry you choose.
Response given: 2

###

Tested on: MV4-11
EXPERIMENT DESCRIPTION: Cell proliferation inhibition (CellTiter-Glo), MV4-11
Type: cell-based
RUN PARAMETERS: Homo sapiens, MV4-11, 72 h, MV4-11 cells
PROPERTY LABEL: GI50 (nM)

Recorded results for 7 compounds are shown here.
CC(C)N(C(=O)c1cc(F)ccc1Oc1cncnc1N1CC2(CCN(C[C@H]3CC[C@@]4(CCC(=O)N4)CC3)CC2)C1)C(C)C [Example 5] ... 47.8
CC(C)N(C(=O)c1cc(F)ccc1Oc1nncnc1N1CC2(CCN(CC3CC4CCC3CC43CCC(=O)N3)CC2)C1)C(C)C (single isomer, unassigned) [Example 15-1a] ... 56.6
CCN(C(=O)c1cc(F)ccc1Oc1cncnc1N1CC2(CCN(C[C@H]3CC[C@]4(CC3)CC(C)(C)C(=O)N4)CC2)C1)C(C)C [Example 21] ... 13.1
COC[C@@H]1C[C@]2(CC[C@@H](CN3CCC4(CC3)CN(c3ncncc3Oc3ccc(F)cc3C(=O)N(C(C)C)C(C)C)C4)CC2)NC1=O [Example 36] ... 13.1
CC(C)N(C(=O)c1cc(F)ccc1Oc1nncnc1N1CC2(CCN(C[C@H]3CC[C@]4(CC3)CC(C)(C)C(=O)N4)CC2)C1)C1CCC1 [Example 32] ... 17.8
CCN(C(=O)c1cc(F)ccc1Oc1cncnc1N1CC2(CCN(C[C@H]3CC[C@]4(CC3)C[C@@H](COC)C(=O)N4)CC2)C1)C(C)C [Example 35] ... 11.7
CC(C)=C1C[C@]2(CC[C@@H](CN3CCC4(CC3)CN(c3ncnnc3Oc3ccc(F)cc3C(=O)N(C(C)C)C(C)C)C4)CC2)NC1=O [Example 61] ... 23

[I] COC[C@@H]1C[C@]2(CC[C@@H](CN3CCC4(CC3)CN(c3ncnnc3Oc3ccc(F)cc3C(=O)N(C(C)C)C(C)C)C4)CC2)NC1=O [Example 38-2]
[II] CCN(C(=O)c1cc(F)ccc1Oc1nncnc1N1CC2(CCN(C[C@H]3CC[C@]4(CC3)CC(C)(C)C(=O)N4)CC2)C1)C(C)C [Example 26]
[III] CC(C)N(C(=O)c1cc(F)ccc1Oc1cncnc1N1CC2(CCN(C[C@H]3CC[C@]4(CC3)CC(C)(C)C(=O)N4)CC2)C1)C1CCC1 [Example 25]
[IV] CC(C)N(C(=O)c1cc(F)ccc1Oc1nncnc1N1CC2(CCN(CC3CCC4(CC3)CN(C)C(=O)N4)CC2)C1)C(C)C (single isomer, unassigned) [Example 47-1]
[V] COC[C@H]1C[C@]2(CC[C@@H](CN3CCC4(CC3)CN(c3ncnnc3Oc3ccc(F)cc3C(=O)N(C(C)C)C(C)C)C4)CC2)NC1=O [Example 38-1]
Challenge: Please list the entries, largest GI50 first. Use the labels to give the requested order.
Response given: IV, V, II, I, III

###

EXPERIMENT DESCRIPTION: Pharmacokinetics test in mouse
Assay type: in vivo, ICR mice
RUN PARAMETERS: male, ICR, mouse, plasma, po, 10 mg/kg, mice, p.o. 10 mg/kg
PROPERTY LABEL: AUC(0-t) (ng·h/mL)

CC(C)N(C(=O)c1cc(F)ccc1Oc1cncnc1N1CC2(CCN(CC3CC4CCC3CC43CCC(=O)N3)CC2)C1)C(C)C (single isomer, unassigned) ... 7770
CC(C)N(C(=O)c1cc(F)ccc1Oc1cncnc1N1CC2(CCN(C[C@H]3CC[C@@]4(CCC(=O)N4)CC3)CC2)C1)C(C)C ... 7700
CC(C)N(C(=O)c1cc(F)ccc1Oc1cncnc1N1CC2(CCN(C[C@H]3CC[C@]4(CC3)CC(C)(C)C(=O)N4)CC2)C1)C1CC1 ... 2650
COC[C@H]1C[C@]2(CC[C@@H](CN3CCC4(CC3)CN(c3ncnnc3Oc3ccc(F)cc3C(=O)N(C(C)C)C(C)C)C4)CC2)NC1=O ... 5060
CC(C)N(C(=O)c1cc(F)ccc1Oc1nncnc1N1CC2(CCN(CC3CC4CCC3CC43CCC(=O)N3)CC2)C1)C(C)C (single isomer, unassigned) ... 6410
CC(C)N(C(=O)c1cc(F)ccc1Oc1nncnc1N1CC2(CCN(CC3CCC4(CC3)COC(=O)N4)CC2)C1)C(C)C (centres unmarked) ... 2320

[A] COCC1(COC)C[C@]2(CC[C@@H](CN3CCC4(CC3)CN(c3ncnnc3Oc3ccc(F)cc3C(=O)N(C(C)C)C(C)C)C4)CC2)NC1=O
[B] CCN(C(=O)c1cc(F)ccc1Oc1cncnc1N1CC2(CCN(C[C@H]3CC[C@]4(CC3)CC(COC)(COC)C(=O)N4)CC2)C1)C(C)C
Challenge: Please tell me which of the two, A or B , has the higher reported AUC(0-t) value. Field: selected label. Fill in the label of the entry you choose.
Response given: B
(B: 3220 ng·h/mL, A: 2180 ng·h/mL)

[P] COC[C@@H]1C[C@]2(CC[C@@H](CN3CCC4(CC3)CN(c3ncnnc3Oc3ccc(F)cc3C(=O)N(C(C)C)C(C)C)C4)CC2)NC1=O
[Q] COCC1(COC)C[C@]2(CC[C@@H](CN3CCC4(CC3)CN(c3ncncc3Oc3ccc(F)cc3C(=O)N(C(C)C)C(C)C)C4)CC2)NC1=O
Challenge: Please tell me which of the two, P or Q , has the higher reported AUC(0-t) value. Field: selected label. Fill in the label of the entry you choose.
Response given: Q
(Q: 4040 ng·h/mL, P: 1980 ng·h/mL)
